Value source: PubChem BioAssay

tested on: ATP-binding cassette sub-family B member 6 (Homo sapiens)
measurement protocol: ABCB6 transporter inhibitors, pilot screen, K562-ABCB6 cells, flow cytometry, validation set (AID 588550);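 also: 0% = DMSO wells and 100% = benzethonium chloride 70 µM positive control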
condition parameters: K562-ABCB6 porphyrin accumulation, 1 h, at 10 µM, hits give high values
value type: inhibition (%)
Please state the figure in %; there is no need to write the unit.

*Q* Requested field: inhibition. Item: CC1(C(=O)O)CCC(C(=O)NC2CCCCCC2)C1(C)C (stereo not drawn)
*A* 7

*Q* Requested field: inhibition. Item: Cc1csc(CCc2nc(C)cs2)n1
*A* 17

*Q* Requested field: inhibition. Item: CNc1nc(N(C)C)nc(N(C)C)n1
*A* 11

*Q* Requested field: inhibition. Item: CCOC(=O)/C=C1\NC(C)(C)Cc2cc(OC)c(OC)cc21
*A* 7

*Q* Requested field: inhibition. Item: CC(NCCC(c1ccccc1)c1ccccc1)c1ccccc1 (stereo not drawn)
*A* 9

*Q* Requested field: inhibition. Item: COc1cc2c(cc1OC)C(c1cc(OC)c(OC)c(OC)c1)NCC2 (stereo not drawn)
*A* 7

*Q* Requested field: inhibition. Item: O=c1c2ccccc2nc2n1-c1ccccc1CCC2
*A* 0

*Q* Requested field: inhibition. Item: Oc1[nH]c2ccccc2c1N=Nc1ccccc1
*A* 10

*Q* Requested field: inhibition. Item: CC(=O)[C@@]1(O)CC[C@H]2[C@@H]3CCC4=CC(=O)CC[C@]4(C)[C@H]3CC[C@@]21C
*A* 2

*Q* Requested field: inhibition. Item: COCCn1c(/C=C/c2ccccc2)nc2ccccc21
*A* 6

*Q* Requested field: inhibition. Item: C/C(NC(=O)c1cccs1)=C1\C(=O)C[C@@H]2[C@H]1C2(C)C
*A* 9

*Q* Requested field: inhibition. Item: CCn1cc(C(=O)O)c(=O)c2cnc(N3CCNCC3)nc21
*A* 6

*Q* Requested field: inhibition. Item: CC#C[C@]1(O)CC[C@H]2[C@@H]3CCC4=CC(=O)CCC4=C3[C@@H](c3ccc(N(C)C)cc3)C[C@@]21C
*A* 3

*Q* Requested field: inhibition. Item: COc1ccc2oc(=O)c(-c3nc(C)cs3)cc2c1
*A* 7

*Q* Requested field: inhibition. Item: CN(CCCN1CCOCC1)Cc1cn(C)nc1-c1ccccc1F
*A* 2

*Q* Requested field: inhibition. Item: COc1ccc2c(CCNC(=O)c3ccc([N+](=O)[O-])cc3)c[nH]c2c1
*A* 4

*Q* Requested field: inhibition. Item: C=CCN1C(=O)c2oc3ccccc3c(=O)c2C1c1ccc(O)c(OC)c1 (stereo not drawn)
*A* 0

*Q* Requested field: inhibition. Item: COc1cc(OC)c(C2C(C#N)=C(N)OC3=C2C(=O)CC(C)(C)C3)cc1OC (stereo not drawn)
*A* 13
